Consider the following compounds; for each one, report its pIC50.
# Tested target: Human immunodeficiency virus type 1 protease (Human immunodeficiency virus 1, UniProt Q72874)
Peptide text beside a SMILES is read from it.
// scale note: pIC50 = -log10(conc_M); give the bare number

// CC(C)[C@H](NC(=O)[C@@H](NC(=O)[C@@H]1CCCN1C[C@H](Cc1ccccc1)NC(=O)[C@H](C)NC(=O)[C@H](C)NC(=O)[C@@H](N)CO)C(C)C)C(N)=O (HELM PEPTIDE1{S.A.A.[O=C([C@@H]1CCCN1C[C@H](Cc1ccccc1)N[*:1])[*:2]].V.V.[am]}$$$$V2.0) : pIC50 value = 4.72

// `CCCC[C@H](CN[C@H](CCCC)C(=O)N[C@@H](CCC(N)=O)C(=O)N[C@@H](CCCNC(=N)N)C(N)=O)NC(=O)[C@@H](NC(=O)[C@@H](NC(C)=O)[C@@H](C)O)[C@@H](C)CC` : pIC50 value = 6.11

// `CC(C)[C@H](NC(=O)OCc1ccccc1)C(=O)N[C@@H](Cc1ccccc1)C(O)[C@H](Cc1ccccc1)NC(=O)[C@@H](NC(=O)OCc1ccccc1)C(C)C` : pIC50 value = 8.52

// CC[C@H](C)[C@H](NC(=O)[C@@H]1CCCN1C[C@H](Cc1ccccc1)NC(=O)[C@H](CC(N)=O)NC(=O)[C@H](CCC(N)=O)NC(=O)[C@H](CO)NC(=O)[C@@H](N)C(C)C)C(=O)N[C@H](C(=O)O)C(C)C (HELM PEPTIDE1{V.S.Q.N.[O=C([C@@H]1CCCN1C[C@H](Cc1ccccc1)N[*:1])[*:2]].I.V}$$$$V2.0) : pIC50 value = 8.46

// `CC(C)C[C@H](NC(=O)[C@H](Cc1ccccc1)CP(=O)(O)[C@H](Cc1ccccc1)NC(=O)OC(C)(C)C)C(=O)N[C@@H](Cc1ccccc1)C(N)=O` : pIC50 value = 8.05

// CC(C)(C)NC(=O)C1CCCCN1C[C@@H](O)[C@H](Cc1ccccc1)NC(=O)[C@H](CC(N)=O)NC(=O)c1ccc2ccccc2n1 (stereo partly drawn) : pIC50 value = 8.70

// CC(C)(C)OC(=O)C1CCCN1C[C@@H](O)[C@H](Cc1ccccc1)NC(=O)[C@H](CC(N)=O)NC(=O)OCc1ccccc1 (stereo partly drawn) : pIC50 value = 6.85
